assay: basal MM1S mitochondrial membrane potential changes, profiling panel, cell-based, JC-1 fluorescence, 24 h, 100 nL compound (AID 1170); conditions: higher = more signal; also: test concentration not given here
property_name: z-score
// no unit string in output, number only

Example entries and their recorded answers appear below.
CCOC(=O)[C@H](CC(C)C)NC(=O)CCC1CC(OC(=O)NCCc2ccc(F)cc2)CC2(CCCC(COC(=O)NCCOc3ccccc3)O2)O1 (some centres undefined) | -0.0103
CCOC(=O)NN=C1C[C@@H](O)[C@@H](O)[C@@H]2[C@@H]3C(=O)N([C@@H](C)c4ccccc4)C(=O)[C@@H]3CC[C@H]12 | -0.476
COc1cccc([C@H]2Oc3ccc(OC)cc3C(=NOC(C)CN3CCCCc4nc(C)c(C)cc43)[C@@H]2O)c1 (some centres undefined) | -0.144

Consider the record given below.
Task: Requested read-out: z-score. Entry: CO[C@H]1COC(=O)CC=C[C@@H](C)[C@H](OC)COC(=O)[C@@H]2CCCN2C(=O)CC=C[C@@H]1C
Output: 1.22

Reference source for all entries: PubChem BioAssay
